SYSTEM UNDER TEST: T1, Human ANGPTL4(26-406)-FLAG-His6-Avi (human, UniProt Q9BY76 24-406, biotin on the C-terminal Avi tag (BirA) where the protein is immobilised)
T1 construct: the text calls it 20 amino acids), then QP, ANGPTL4 26-406 and FLAG-His6-Avi; the signal peptide is left out here; also called full length human ANGPTL4; hANGPTL4
T1 sequence: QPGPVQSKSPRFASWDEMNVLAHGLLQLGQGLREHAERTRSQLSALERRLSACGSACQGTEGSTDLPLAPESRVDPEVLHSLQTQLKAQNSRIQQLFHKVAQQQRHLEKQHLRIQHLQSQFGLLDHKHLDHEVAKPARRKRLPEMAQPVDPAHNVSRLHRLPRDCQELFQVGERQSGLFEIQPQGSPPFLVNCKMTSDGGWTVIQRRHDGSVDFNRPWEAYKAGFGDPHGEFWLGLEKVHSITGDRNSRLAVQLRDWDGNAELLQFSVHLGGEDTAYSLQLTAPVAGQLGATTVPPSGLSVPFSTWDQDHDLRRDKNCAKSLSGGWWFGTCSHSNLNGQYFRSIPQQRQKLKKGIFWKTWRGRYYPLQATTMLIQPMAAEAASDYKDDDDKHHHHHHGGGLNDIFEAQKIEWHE
METHOD: Octet (ForteBio) kinetics, biotinylated antigen on streptavidin sensor, IgG in solution
MEASURED PROPERTY: koff (s⁻¹)
API: value field is a number in s⁻¹; no unit string.

Ask: // returns reported koff for input NEG310 (antibody, human IgG1, kappa, V domains shown, humanized, hIgG1/kappa, parental antibody 17B1) VH: QVQLVQSGAEVKKPGASVKVSCKASGYTFTSYTMHWVRQAPGQGLEWMGYINPSSGYTKYNQKFQGRVTMTADKSTSTAYMELSSLRSEDTAVYYCAEGWLLLAMDYWGQGTLVTVSS VL: EAVVTQSPATLSLSPGERATLSCRSSTGAVTTSNYAIWVQEKPGQAPRGLIGGTNNRAPGIPARFSGSLSGDDATLTISSLQPEDFAVYFCALWYSDHWVFGQGTKVEIKR
Result: 1.1e-05
